Target: Cad1 (UniProt P24813)
Sequence: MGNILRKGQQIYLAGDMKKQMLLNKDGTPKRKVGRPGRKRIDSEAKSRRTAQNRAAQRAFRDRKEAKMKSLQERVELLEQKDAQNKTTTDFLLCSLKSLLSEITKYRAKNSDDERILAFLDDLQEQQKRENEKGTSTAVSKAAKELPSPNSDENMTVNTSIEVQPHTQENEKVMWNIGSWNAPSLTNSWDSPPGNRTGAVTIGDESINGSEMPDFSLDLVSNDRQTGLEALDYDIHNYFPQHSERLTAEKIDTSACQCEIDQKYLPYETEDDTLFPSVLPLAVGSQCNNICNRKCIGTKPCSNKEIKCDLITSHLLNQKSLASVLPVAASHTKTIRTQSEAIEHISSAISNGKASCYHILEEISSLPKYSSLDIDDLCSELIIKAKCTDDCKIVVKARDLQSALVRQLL
Assay: PBM E-score (8-mer binding enrichment) (E-score (-0.5 to 0.5)); higher = stronger / more preferred TF binding
Settings: protein concentration: 100 nM; construct: GST-full length
The full ranking holds about 33,000 sequences; the median of “E-score (-0.5 to 0.5)” is about -0.0014, and the highest 2% start at about 0.25. Many of the other results were omitted from the sample, so the highest values are more common in it than they were.
Please enter yes (1) where PBM E-score is greater than or equal to 0.2, and no (0) where it is lower.

Example entries and their recorded answers appear below.
{"biosequence": "AACTTATA", "answerLabel": "yes (1)"}
{"biosequence": "ATAATTCC", "answerLabel": "no (0)"}
{"biosequence": "AGATCAAT", "answerLabel": "no (0)"}
{"biosequence": "ATTATAAT", "answerLabel": "yes (1)"}
{"biosequence": "AAAATTGT", "answerLabel": "no (0)"}

Determine whether measured PBM E-score meets or exceeds 0.2 for ATAATTTC
no (0)

And TGTTGCAA ?
yes (1)

Origin of the recorded values: the supplement of paper PMC3334620
